Biological target: Tyrosinase (Agaricus bisporus, UniProt O42713)
Sequence (O42713 whole entry): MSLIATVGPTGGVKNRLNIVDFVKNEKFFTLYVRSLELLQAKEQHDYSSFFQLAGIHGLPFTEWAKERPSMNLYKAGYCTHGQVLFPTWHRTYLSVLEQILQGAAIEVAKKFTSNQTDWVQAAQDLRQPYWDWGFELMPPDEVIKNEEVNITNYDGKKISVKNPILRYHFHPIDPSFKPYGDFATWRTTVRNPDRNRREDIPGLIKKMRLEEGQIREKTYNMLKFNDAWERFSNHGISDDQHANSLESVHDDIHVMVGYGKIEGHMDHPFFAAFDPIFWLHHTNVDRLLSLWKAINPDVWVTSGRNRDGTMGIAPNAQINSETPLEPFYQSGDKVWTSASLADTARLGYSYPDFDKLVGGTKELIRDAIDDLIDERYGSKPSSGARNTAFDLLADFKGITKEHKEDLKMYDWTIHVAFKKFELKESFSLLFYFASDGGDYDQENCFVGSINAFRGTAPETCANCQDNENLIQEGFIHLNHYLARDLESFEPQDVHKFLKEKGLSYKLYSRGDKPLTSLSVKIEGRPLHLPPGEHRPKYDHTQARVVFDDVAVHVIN
pIC50: −log10 of the molar value.
// note: pIC50 values for Tyrosinase (Agaricus bisporus, UniProt O42713) were reported in different studies
METRIC_NAME: pIC50

input_smiles=Cc1ccc(/C=C/C(=O)Oc2cc(C)ccc2C(C)C)cc1 target_desc="Tyrosinase (Agaricus bisporus, UniProt O42713)" metric_name=pIC50 observed_measurement="< 4.00"
input_smiles=O[C@H](CCc1ccccc1)C[C@H](O)CCc1ccccc1 target_desc="Tyrosinase (Agaricus bisporus, UniProt O42713)" metric_name=pIC50 observed_measurement="< 4.00"
input_smiles=CCOC(=O)c1ccc(-c2cc(OC)c(OC)c(OC)c2)cc1O target_desc="Tyrosinase (Agaricus bisporus, UniProt O42713)" metric_name=pIC50 observed_measurement="< 2.70"
input_smiles=O=c1oc2c(O)cccc2cc1-c1ccccc1 target_desc="Tyrosinase (Agaricus bisporus, UniProt O42713)" metric_name=pIC50 observed_measurement="< 2.30"
input_smiles=COc1cc(-c2ccc(C(=O)NCc3ccccc3)cc2)cc(OC)c1OC target_desc="Tyrosinase (Agaricus bisporus, UniProt O42713)" metric_name=pIC50 observed_measurement="< 2.70"
input_smiles=CC(=O)OC[C@H]1O[C@@H](Oc2ccc(/C=N\O)cc2)[C@H](OC(C)=O)[C@H](OC(C)=O)[C@@H]1OC(C)=O target_desc="Tyrosinase (Agaricus bisporus, UniProt O42713)" metric_name=pIC50 observed_measurement="< 3.70"

----------
// note: IC50 values for Tyrosinase (Agaricus bisporus) were reported in different studies
Target: Tyrosinase (Agaricus bisporus)
Sequence (O42713 whole entry): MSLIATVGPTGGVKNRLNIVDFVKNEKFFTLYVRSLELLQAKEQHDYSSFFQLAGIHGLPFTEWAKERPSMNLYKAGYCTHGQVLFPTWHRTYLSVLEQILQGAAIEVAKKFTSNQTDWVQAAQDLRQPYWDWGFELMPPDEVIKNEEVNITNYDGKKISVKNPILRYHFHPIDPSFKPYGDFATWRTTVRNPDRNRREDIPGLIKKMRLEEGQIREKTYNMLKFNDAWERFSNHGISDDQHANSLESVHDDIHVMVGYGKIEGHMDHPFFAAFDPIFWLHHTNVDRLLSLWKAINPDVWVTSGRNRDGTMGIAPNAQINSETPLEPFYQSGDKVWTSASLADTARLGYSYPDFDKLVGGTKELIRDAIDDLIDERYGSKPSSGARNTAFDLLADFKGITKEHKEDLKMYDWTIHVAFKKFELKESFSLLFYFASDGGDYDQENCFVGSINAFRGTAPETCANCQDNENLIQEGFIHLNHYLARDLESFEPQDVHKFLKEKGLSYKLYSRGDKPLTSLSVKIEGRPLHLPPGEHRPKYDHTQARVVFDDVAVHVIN
METRIC_NAME: IC50 (µM)

compound=COc1cc(/C=C/C(=O)NCCc2c[nH]c3ccc(O)cc23)cc(OC)c1O censoring_sign=> observed_measurement=350
compound=CCCCNC(=O)c1ccc(-c2cc(OC)c(OC)c(OC)c2)cc1 censoring_sign=> observed_measurement=2000
compound=COc1cc(/C=C/C(=O)NCCNC(=O)/C=C/c2ccc(O)c(OC)c2)ccc1O censoring_sign=> observed_measurement=150
compound=NC(=O)Nc1ccccc1 censoring_sign=> observed_measurement=1000
compound=COc1ccc(C(=O)OC[C@H]2O[C@H]3c4c(cc(OC)c(OC)c4OC)C(=O)O[C@@H]3[C@@H](O)[C@@H]2O)cc1 censoring_sign=> observed_measurement=100
compound=C=CCOc1cccc2c1C(=O)c1c(OCC=C)cc(/C=N/O)cc1C2=O censoring_sign== observed_measurement=83.2
compound=COc1cc(/C=C/C(=O)Oc2cc(C)ccc2C(C)C)ccc1O censoring_sign=> observed_measurement=100
compound=O=C(NCc1ccccc1)c1cc(O)c(O)c(O)c1 censoring_sign== observed_measurement=780
compound="O=C1CC(c2ccc(O)cc2O)Oc2ccccc21 (stereo unspecified)" censoring_sign== observed_measurement=0.97
compound=NC(=S)N/N=C/c1cc2ccccc2[nH]1 censoring_sign== observed_measurement=402
compound=C/C(CCc1ccc(OCc2ccccc2)cc1)=N\NC(N)=S censoring_sign== observed_measurement=0.217
compound=COc1cc(C(=O)OC[C@H]2O[C@H]3c4c(cc(OC)c(OC)c4OC)C(=O)O[C@@H]3[C@@H](O)[C@@H]2O)cc(OC)c1O censoring_sign=> observed_measurement=100
compound=Cc1ccc(C(C)C)c(OC(=O)/C=C/c2ccccc2)c1 censoring_sign=> observed_measurement=100
compound=Cc1ccccc1C(=O)N1CCN(Cc2ccc(F)cc2)CC1 censoring_sign== observed_measurement=5.25
compound="COC(=O)C(C)NC(=O)COc1ccc(C=O)cc1 (stereo unspecified)" censoring_sign== observed_measurement=160
compound=O=C1OC(c2ccc(/N=N/c3ccc(N4CCOCC4)cc3)cc2)=N/C1=C/c1ccccc1[N+](=O)[O-] censoring_sign== observed_measurement=20.3
compound=COc1ccc(C(=O)NCc2ccc(O)cc2O)c(O)c1 censoring_sign== observed_measurement=0.3
compound=COc1ccc(C(C)=O)cc1-c1cc(OC)c(OC)c(OC)c1 censoring_sign=> observed_measurement=2000
compound=COc1cc(C=O)ccc1OC(=O)COC(=O)c1cc(O)cc(O)c1 censoring_sign== observed_measurement=59.8
compound=CCCCCOc1ccc(CC/C(C)=N/NC(N)=S)cc1 censoring_sign== observed_measurement=0.412
compound=COc1ccc(CCc2ccc(O)cc2O)cc1 censoring_sign== observed_measurement=31.6
compound=NC(=S)N/N=C/c1ccc2ccccc2c1 censoring_sign== observed_measurement=1100
compound=O=c1cc(CSc2nnc(-c3cccc(Cl)c3)n2NCc2ccccc2O)occ1O censoring_sign== observed_measurement=2.5
compound="CC1=CC(=O)CC(C)(C)C1O (stereo unspecified)" censoring_sign== observed_measurement=1100
compound="Oc1cc(O)cc(/C=C/c2cc(C(Cc3cc(O)cc(O)c3)c3ccc(O)cc3O)c(O)cc2O)c1 (stereo unspecified)" censoring_sign== observed_measurement=68
compound=COc1ccc(CC/C(C)=N/NC(=S)NN)cc1 censoring_sign== observed_measurement=208
